koff values, listed per item
Biological target: T1, human interleukin-2 receptor α-chain (human, UniProt P01589 22-240, limits assumed)
T1 construct: Recombinant human IL-2Rα protein, coated on the ELISA plate or amine-coupled to a CM5 chip; also called human IL-2Rα; hu IL-2R
T1 sequence: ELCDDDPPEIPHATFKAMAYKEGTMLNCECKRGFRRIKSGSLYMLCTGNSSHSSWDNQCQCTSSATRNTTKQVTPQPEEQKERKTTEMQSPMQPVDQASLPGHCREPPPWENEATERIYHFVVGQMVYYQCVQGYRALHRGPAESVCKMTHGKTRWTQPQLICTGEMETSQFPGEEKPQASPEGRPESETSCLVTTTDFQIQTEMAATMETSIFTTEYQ
Assay: SPR (Biacore 3000) off-rate ranking, periplasmic extract over immobilised human IL-2Rα
Field: numeric (s⁻¹). Do not append units.

binder	koff (s⁻¹)
FJ1427_P035MP05D12 (VHH, Tested as soluble VHH in a crude periplasmic extract (P.E.); CDR3 family 15; also called Clone nr) VHH: QLQLVESGGGSVQAGGSLRLSCAASGRTLYSSYGMAWFRQAPGKERDFVGSISRYGTYTSYADSVKDRFTISRDNAKSTVYLQMNNTKPEDTAVYYCAAYTYSGSFYSTVKTHRDEYQYWGQGTQVTVSS	0.00235
FJ1427_P035MP05F11 (VHH, Tested as soluble VHH in a crude periplasmic extract (P.E.); CDR3 family 15; also called Clone nr; 470) VHH: QVQLVESGGGSVQAGGSLRLSCAASGRTLYSSYGMAWFRQAPGKERDFVGSISRYGTYTSYADSVKDRFTISRDNAKSTVYLQMNNTKPEDTAVYYCAAYTYSGSFYSAVKTHRDEYQYWGQGTQVTVSS	0.00173
FJ1427_P035MP05F12 (VHH, Tested as soluble VHH in a crude periplasmic extract (P.E.); CDR3 family 4; also called Clone nr) VHH: QLQLVESGGGLVQAGGSLRLSCLASGLTFDGYAIGWFRQAPGKELEGVSYITGSDGSSYYADSVKGRFTISSDNAKNTVYLHMNSLKPDDAAVYYCAIDHLGSRGGYHSSWWRSSDMDLWGKGTLVTVSS	0.000469
FJ1427_P035MP05E12 (VHH, Tested as soluble VHH in a crude periplasmic extract (P.E.); CDR3 family 1; also called Clone nr) VHH: QLQLVESGGGLVQAGDSLRLSCAASGFNFGWHAMGWFRQAPGKEREFVATITWTGRDTYYADSVRGRFTISKDNAKDTLFLQMNSLRPDDTGVYYCAKARERATWAYSEDDCDYWGQGTQVTVSS	0.000273

// switching to the query binder
Fill in: koff of FJ1427_P035MP05C12 (VHH, Tested as soluble VHH in a crude periplasmic extract (P.E.); CDR3 family 1; also called Clone nr) VHH: EVQLVESGGGLVQAGDSLRLSCAASGFNFGWHAMGWFRQAPGKEREFVATITWTGRDTYYADSVRGRFTISKDNAKNTLFLQMSSLRPDDTGVYYCAKARERATWAYSEDDCDYWGQGTQVTVSS is ___
0.000874
